Target system: PrtRII50 Arg-specific proteinase (Porphyromonas gingivalis)
Construct: made in house; host or cells: Porphyromonas gingivalis W50 (native enzyme purified from cell sonicate, not recombinant)
Sequence (P95493 230-736): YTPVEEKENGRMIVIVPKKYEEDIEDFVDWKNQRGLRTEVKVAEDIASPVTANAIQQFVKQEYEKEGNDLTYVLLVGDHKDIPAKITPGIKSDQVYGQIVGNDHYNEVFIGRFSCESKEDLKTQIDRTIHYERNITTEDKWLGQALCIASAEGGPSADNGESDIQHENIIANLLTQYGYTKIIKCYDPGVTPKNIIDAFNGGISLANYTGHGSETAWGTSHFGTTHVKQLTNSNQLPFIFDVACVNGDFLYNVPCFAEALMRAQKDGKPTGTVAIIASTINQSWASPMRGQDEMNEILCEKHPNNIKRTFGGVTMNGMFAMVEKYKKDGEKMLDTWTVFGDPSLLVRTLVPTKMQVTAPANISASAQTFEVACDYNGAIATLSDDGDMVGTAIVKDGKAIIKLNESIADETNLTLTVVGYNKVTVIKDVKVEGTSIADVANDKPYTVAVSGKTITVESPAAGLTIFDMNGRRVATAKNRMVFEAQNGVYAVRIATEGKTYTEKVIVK
Type: biochemical, Porphyromonas gingivalis W50
Run conditions: inhibition at similar concentrations to that which inhibited the PrtR45
Metric: effect on activity of the Arg-specific 50 kDa enzyme

INSERT INTO assay_data (compound, reported) VALUES
  ('NCCc1ccc(S(=O)(=O)F)cc1', 'not inhibited'),
  ('CC(=O)N[C@@H](CC(C)C)C(=O)N[C@@H](CC(C)C)C(=O)N[C@H](C=O)CCCNC(=N)N', 'inhibited'),
  ('O=S(=O)(F)Cc1ccccc1 [phenylmethyl sulfonyl fluoride]', 'not inhibited'),
  ('O=C(O)CN(CCN(CC(=O)O)CC(=O)O)CC(=O)O', 'inhibited');

These entries and their values trace back to patent US8841420B2.
